system: EMC-BAC-2; test: relative viability (nuclei count vs DMSO), 5 days (fraction); higher = more cells survive; details: first compound 0.02 µM
measuredMetric: relative viability
Lab note: jot the number down without any unit.

{"columns": ["compound", "measuredMetric", "valueMeasured"],
 "data": [
  ["CC(=O)O[C@@]12CO[C@@H]1C[C@H](O)[C@@]1(C)C(=O)[C@H](O)C3=C(C)[C@@H](OC(=O)[C@H](O)[C@@H](NC(=O)OC(C)(C)C)c4ccccc4)C[C@@](O)([C@@H](OC(=O)c4ccccc4)[C@H]21)C3(C)C [Docetaxel] + Cc1nc(NC(=O)N2CCC[C@H]2C(N)=O)sc1-c1ccnc(C(C)(C)C(F)(F)F)c1 [Alpelisib] (partner 2 µM)", "relative viability", 0.154],
  ["CC(=O)O[C@@]12CO[C@@H]1C[C@H](O)[C@@]1(C)C(=O)[C@H](O)C3=C(C)[C@@H](OC(=O)[C@H](O)[C@@H](NC(=O)OC(C)(C)C)c4ccccc4)C[C@@](O)([C@@H](OC(=O)c4ccccc4)[C@H]21)C3(C)C [Docetaxel] + C[C@]1(O)C[C@@H](c2nc(-c3ccc4ccc(-c5ccccc5)nc4c3)c3c(N)nccn32)C1 [Linsitinib] (partner 1 µM)", "relative viability", 0.207],
  ["CC(=O)O[C@@]12CO[C@@H]1C[C@H](O)[C@@]1(C)C(=O)[C@H](O)C3=C(C)[C@@H](OC(=O)[C@H](O)[C@@H](NC(=O)OC(C)(C)C)c4ccccc4)C[C@@](O)([C@@H](OC(=O)c4ccccc4)[C@H]21)C3(C)C [Docetaxel] + CC1(C)CCC(c2ccc(Cl)cc2)=C(CN2CCN(c3ccc(C(=O)NS(=O)(=O)c4ccc(N[C@H](CCN5CCOCC5)CSc5ccccc5)c(S(=O)(=O)C(F)(F)F)c4)cc3)CC2)C1 [Navitoclax] (partner 0.5 µM)", "relative viability", 0.148],
  ["CC(=O)O[C@@]12CO[C@@H]1C[C@H](O)[C@@]1(C)C(=O)[C@H](O)C3=C(C)[C@@H](OC(=O)[C@H](O)[C@@H](NC(=O)OC(C)(C)C)c4ccccc4)C[C@@](O)([C@@H](OC(=O)c4ccccc4)[C@H]21)C3(C)C [Docetaxel] + CS(=O)(=O)N1CCN(Cc2cc3nc(-c4cccc5[nH]ncc45)nc(N4CCOCC4)c3s2)CC1 [Pictilisib] (partner 1 µM)", "relative viability", 0.207]
]}

Attention now shifts to the item below.
Lookup: Which measured relative viability value corresponds to CC(=O)O[C@@]12CO[C@@H]1C[C@H](O)[C@@]1(C)C(=O)[C@H](O)C3=C(C)[C@@H](OC(=O)[C@H](O)[C@@H](NC(=O)OC(C)(C)C)c4ccccc4)C[C@@](O)([C@@H](OC(=O)c4ccccc4)[C@H]21)C3(C)C [Docetaxel] + CC(=O)c1c(C)c2cnc(Nc3ccc(N4CCNCC4)cn3)nc2n(C2CCCC2)c1=O [Palbociclib] (partner 0.5 µM) ?
Found: 0.31

###

test system: HCC-366; assay: relative viability (nuclei count vs DMSO), 5 days (fraction); higher = more cells survive; conditions: first compound 8 µM
measuredMetric: relative viability
Lab note: jot the number down without any unit.

{"columns": ["compound", "valueMeasured"],
 "data": [
  ["O=c1[nH]c2ccccc2n1C1CCN(CCCC(c2ccc(F)cc2)c2ccc(F)cc2)CC1 [Pimozide] + CC(=O)c1c(C)c2cnc(Nc3ccc(N4CCNCC4)cn3)nc2n(C2CCCC2)c1=O [Palbociclib] (partner 0.5 µM)", 0.357],
  ["O=c1[nH]c2ccccc2n1C1CCN(CCCC(c2ccc(F)cc2)c2ccc(F)cc2)CC1 [Pimozide] + Cc1nc(NC(=O)N2CCC[C@H]2C(N)=O)sc1-c1ccnc(C(C)(C)C(F)(F)F)c1 [Alpelisib] (partner 2 µM)", 0.518],
  ["O=c1[nH]c2ccccc2n1C1CCN(CCCC(c2ccc(F)cc2)c2ccc(F)cc2)CC1 [Pimozide] + O=C(CCCCCCC(=O)Nc1ccccc1)NO [Vorinostat] (partner 1 µM)", 0.309],
  ["O=c1[nH]c2ccccc2n1C1CCN(CCCC(c2ccc(F)cc2)c2ccc(F)cc2)CC1 [Pimozide] + C[C@]1(O)C[C@@H](c2nc(-c3ccc4ccc(-c5ccccc5)nc4c3)c3c(N)nccn32)C1 [Linsitinib] (partner 1 µM)", 0.677],
  ["O=c1[nH]c2ccccc2n1C1CCN(CCCC(c2ccc(F)cc2)c2ccc(F)cc2)CC1 [Pimozide] + Cc1nc(Nc2ncc(C(=O)Nc3c(C)cccc3Cl)s2)cc(N2CCN(CCO)CC2)n1 [Dasatinib] (partner 0.075 µM)", 0.714]
]}

Attention now shifts to the item below.
Lookup: Which measured relative viability value corresponds to O=c1[nH]c2ccccc2n1C1CCN(CCCC(c2ccc(F)cc2)c2ccc(F)cc2)CC1 [Pimozide] + NC(=O)Nc1cc(-c2cccc(F)c2)sc1C(=O)N[C@H]1CCCNC1 [AZD7762] (partner 0.2 µM) ?
Found: 0.253

###

system: NCI-H2170; assay: relative viability (nuclei count vs DMSO), 5 days (fraction); higher = more cells survive; details: first compound 0.1581 µM
measuredMetric: relative viability
Lab note: jot the number down without any unit.

These recorded examples may help you get a feel for the data.
{"columns": ["molecule", "measuredMetric", "valueMeasured"],
 "data": [
  ["Nc1ccn([C@@H]2O[C@H](CO)[C@@H](O)[C@@H]2O)c(=O)n1 [Cytarabine] + COc1cccc2cc(-c3nc([C@H]4CC[C@H](C(=O)O)CC4)n4ncnc(N)c34)[nH]c12 [OSI-027] (partner 0.5 µM)", "relative viability", 0.303],
  ["Nc1ccn([C@@H]2O[C@H](CO)[C@@H](O)[C@@H]2O)c(=O)n1 [Cytarabine] + Cc1cc(Nc2cc(N3CCN(C)CC3)nc(Sc3ccc(NC(=O)C4CC4)cc3)n2)n[nH]1 [Tozasertib] (partner 0.1 µM)", "relative viability", 0.386]
]}

Lookup: Observed relative viability on NCI-H2170 for COc1cc2nccc(Oc3ccc(NC(=O)Nc4cc(C)on4)c(Cl)c3)c2cc1OC [Tivozanib] + COc1cc2c(Oc3ccc(NC(=O)C4(C(=O)Nc5ccc(F)cc5)CC4)cc3F)ccnc2cc1OCCCN1CCOCC1 [Foretinib] (partner 0.25 µM) , please.
Found: 1.02

Lookup: What do you get for Nc1ccn([C@@H]2O[C@H](CO)[C@@H](O)[C@@H]2O)c(=O)n1 [Cytarabine] + CS(=O)(=O)N1CCN(Cc2cc3nc(-c4cccc5[nH]ncc45)nc(N4CCOCC4)c3s2)CC1 [Pictilisib] (partner 1 µM) ?
Found: 0.191

###

test system: SW 1573; assay: relative viability (nuclei count vs DMSO), 5 days (fraction); higher = more cells survive; settings: first compound 2.53 µM
measuredMetric: relative viability
Lab note: jot the number down without any unit.

Lookup: Observed relative viability on SW 1573 for O=c1[nH]c2ccccc2n1C1CCN(CCCC(c2ccc(F)cc2)c2ccc(F)cc2)CC1 [Pimozide] + CS(=O)(=O)CCNCc1ccc(-c2ccc3ncnc(Nc4ccc(OCc5cccc(F)c5)c(Cl)c4)c3c2)o1 [Lapatinib] (partner 2 µM) , please.
Found: 1.16

Lookup: What do you get for O=c1[nH]c2ccccc2n1C1CCN(CCCC(c2ccc(F)cc2)c2ccc(F)cc2)CC1 [Pimozide] + Cc1cc(Nc2cc(N3CCN(C)CC3)nc(Sc3ccc(NC(=O)C4CC4)cc3)n2)n[nH]1 [Tozasertib] (partner 0.1 µM) ?
Found: 0.194

Lookup: What do you get for Cc1cnc(-c2cnc(NCCNc3ccc(C#N)cn3)nc2-c2ccc(Cl)cc2Cl)[nH]1 + CC(=O)c1c(C)c2cnc(Nc3ccc(N4CCNCC4)cn3)nc2n(C2CCCC2)c1=O [Palbociclib] (partner 0.5 µM) ?
Found: 0.146

###

relative viability: recorded values
test system: EKVX; experiment: relative viability (nuclei count vs DMSO), 5 days (fraction); higher = more cells survive; conditions: first compound 0.04 µM
Lab note: jot the number down without any unit.

These recorded examples may help you get a feel for the data.
{"columns": ["compound", "relative viability"],
 "data": [
  ["Cc1sc2c(c1C)C(c1ccc(Cl)cc1)=N[C@@H](CC(=O)OC(C)(C)C)c1nnc(C)n1-2 [JQ1] + Cc1cc(Nc2cc(N3CCN(C)CC3)nc(Sc3ccc(NC(=O)C4CC4)cc3)n2)n[nH]1 [Tozasertib] (partner 0.1 µM)", 0.317],
  ["Cc1sc2c(c1C)C(c1ccc(Cl)cc1)=N[C@@H](CC(=O)OC(C)(C)C)c1nnc(C)n1-2 [JQ1] + O=C(c1cc(Cc2n[nH]c(=O)c3ccccc23)ccc1F)N1CCN(C(=O)C2CC2)CC1 [Olaparib] (partner 8 µM)", 0.836],
  ["Cc1sc2c(c1C)C(c1ccc(Cl)cc1)=N[C@@H](CC(=O)OC(C)(C)C)c1nnc(C)n1-2 [JQ1] + CS(=O)(=O)N1CCN(Cc2cc3nc(-c4cccc5[nH]ncc45)nc(N4CCOCC4)c3s2)CC1 [Pictilisib] (partner 1 µM)", 0.442]
]}

Lookup: Which measured relative viability value corresponds to Cc1sc2c(c1C)C(c1ccc(Cl)cc1)=N[C@@H](CC(=O)OC(C)(C)C)c1nnc(C)n1-2 [JQ1] + C[C@@H](Oc1cc(-c2cnn(C3CCNCC3)c2)cnc1N)c1c(Cl)ccc(F)c1Cl [Crizotinib] (partner 1 µM) ?
Found: 0.713

Lookup: What do you get for Cc1sc2c(c1C)C(c1ccc(Cl)cc1)=N[C@@H](CC(=O)OC(C)(C)C)c1nnc(C)n1-2 [JQ1] + Nc1nc2[nH]cc(CCc3ccc(C(=O)N[C@@H](CCC(=O)O)C(=O)O)cc3)c2c(=O)[nH]1 [Pemetrexed] (partner 0.2 µM) ?
Found: 0.351

Lookup: What do you get for Cc1sc2c(c1C)C(c1ccc(Cl)cc1)=N[C@@H](CC(=O)OC(C)(C)C)c1nnc(C)n1-2 [JQ1] + CC1(C)CCC(c2ccc(Cl)cc2)=C(CN2CCN(c3ccc(C(=O)NS(=O)(=O)c4ccc(N[C@H](CCN5CCOCC5)CSc5ccccc5)c(S(=O)(=O)C(F)(F)F)c4)cc3)CC2)C1 [Navitoclax] (partner 0.5 µM) ?
Found: 0.945

Lookup: What do you get for Cc1sc2c(c1C)C(c1ccc(Cl)cc1)=N[C@@H](CC(=O)OC(C)(C)C)c1nnc(C)n1-2 [JQ1] + CS(=O)(=O)CCNCc1ccc(-c2ccc3ncnc(Nc4ccc(OCc5cccc(F)c5)c(Cl)c4)c3c2)o1 [Lapatinib] (partner 2 µM) ?
Found: 0.256

Lookup: What do you get for Cc1sc2c(c1C)C(c1ccc(Cl)cc1)=N[C@@H](CC(=O)OC(C)(C)C)c1nnc(C)n1-2 [JQ1] + CC(C)C[C@H](NC(=O)[C@H](Cc1ccccc1)NC(=O)c1cnccn1)B(O)O [Bortezomib] (partner 0.002 µM) ?
Found: 0.981

Provenance of the data: the supplement of paper PMC10307832
